Each recorded value in this set is attributed to a melting point compilation (Tetko et al.; mined from patent text by program, amines drawn as free bases though some values may be those of a salt).

Listed below: melting point values for each entry.

Consider the worked cases shown below.
- molecule: "Cc1cn2c(=O)c3c(F)cccc3nc2s1"
  melting point: "245 to 246 °C"
- molecule: "CCOC(=O)c1cc2cc(OCCNC[C@H](O)COc3ccccc3)ccc2s1"
  melting point: "99 to 100 °C"
- molecule: "Cc1nn(-c2cccnc2)cc1I"
  melting point: "131 °C"
- molecule: "c1ccc(C2Nc3ccccc3N3CCc4cccc2c43)cc1 (configuration not stated)"
  melting point: "161 to 164 °C"
- molecule: "OCc1cn2c(n1)CN=C(c1ccccn1)c1cc(I)ccc1-2"
  melting point: "206 to 207 °C"

**Q:** Give the measured melting point of Cc1c(NC(=O)CC(C)(C)C)cc2c(c1C)OC(C)(C)C2(O)c1ccc(C(C)C)cc1 (configuration not stated) .
**A:** 119 to 121 °C

**Q:** # iterate: `CCCCCCCCCCCCCCCCCCOc1ccc(N(CC(=O)O)C(=O)OC(C)(C)C)cc1`
**A:** 89 to 92.5 °C

**Q:** # iterate: `C=CCN(CC)c1ccc2[nH]c3cnc(C(=O)OCC)cc3c2c1`
**A:** 190 to 192 °C

**Q:** # iterate: `COc1cc(C(=O)N(C(C)C)C2CCCCC2)ccc1Cn1cccc2nc(-c3cccnc3)nc1-2`
**A:** 185 to 188 °C

----------
endpoint: melting point

Consider the worked cases shown below.
- compound: "Cc1cc(-c2noc(C3CC3)n2)cc(C)c1OCCCc1cc(CO)no1"
  melting point: "80 to 81 °C"
- compound: "Fc1cccc2nc(S)sc12"
  melting point: "193 °C"
- compound: "c1ccc2c(c1)nc1n2CCC1"
  melting point: "86 to 88 °C"
- compound: "CN(C(=O)OC(C)(C)C)c1cnc(-c2ccc(Cl)nc2)s1"
  melting point: "167 to 170 °C"
- compound: "COC(=O)c1cccc(-c2cn(C)cc(-n3cccn3)c2=O)c1"
  melting point: "144 °C"
- compound: "CN(C)C1(c2ccccc2Cl)C(=O)Nc2ccc(Cl)cc21 (stereo not drawn)"
  melting point: "169 to 172 °C"
- compound: "CC(C)(/C=C/c1ccc(C(=O)O)cc1)c1ccc2c(c1)C(C)(C)CCC2(C)C"
  melting point: "219 to 220 °C"
- compound: "C#CCNCC1=Cc2cc(S(N)(=O)=O)sc2S(=O)(=O)N1C(C)C"
  melting point: "133 to 135 °C"
- compound: "NS(=O)(=O)c1cc2sc(C=O)cc2s1"
  melting point: "203 to 204 °C"
- compound: "CCOC(=O)c1c(COc2nccn2C)nc2cc(OC)c(OC)cc2c1-c1ccc(OC)c(OC)c1"
  melting point: "151 to 152 °C"

**Q:** Give the measured melting point of `O=C(O)Cc1ccc(C(=O)O)cc1` .
**A:** 235 to 237 °C

**Q:** # iterate: `CCCCCCC(=N)NC(=O)Nc1ccc(Cl)cc1`
**A:** 168 to 169 °C

**Q:** # iterate: CCOC(C)OCc1ccccc1C(=NO)C(=O)NC (stereo not drawn)
**A:** 85 to 87 °C

----------
Listed below: melting point values for each entry.

Consider the worked cases shown below.
- compound: "COc1nc2cc(Cl)c(Cl)c(N(CCO)S(C)(=O)=O)c2nc1OC"
  endpoint_result: "240 to 242 °C"
- compound: "CCCOc1cccnc1C(O)c1ccc(N)cc1 (centres undefined)"
  endpoint_result: "156 to 157 °C"
- compound: "CC(C)(C)OC(=O)COc1ccc(/C=C/C(=O)C(F)(F)F)cc1"
  endpoint_result: "112 to 113 °C"
- compound: "COS(=O)(=O)Oc1ccc(-c2cccc(-c3nc(C(C)C)[nH]c3-c3cccc(C)n3)c2)cc1"
  endpoint_result: "95 to 105 °C"
- compound: "C[C@H]1CCCC(C)(C)[C@@H]1C(=O)c1cc(F)c(F)c(F)c1"
  endpoint_result: "56.7 °C"

**Q:** Give the measured melting point of `CCCCCCCCCCC1=C(O)C(=O)NC1=O` .
**A:** 109 to 111 °C

**Q:** # iterate: `COc1cc(C(C)(C)C)c(OC(C)=O)c(C(C)(C)C)c1`
**A:** 96.6 °C

**Q:** # iterate: `CCn1cc(CC(=O)O)c(OCCCc2ccc(OCOC)cc2Oc2ccc(C(F)(F)F)cn2)n1`
**A:** 82 to 83 °C

**Q:** # iterate: `NC(=O)c1coc(-c2cccc(C3=Nc4ccc(-n5cccc5)cc4NC(=O)C3)c2)n1`
**A:** 232 to 234 °C

**Q:** # iterate: `COc1cc2c(cc1OCc1ccccc1)CN(Cc1ccccc1)C2`
**A:** 94 to 96 °C

**Q:** # iterate: `O=C(NCC(c1ccccc1)c1ccccc1)N1CCC(C(=O)O)(c2ccccc2)CC1`
**A:** 173 to 174 °C

**Q:** # iterate: `O=C(Cc1ccc(F)cc1)c1ccc(F)cc1`
**A:** 91 to 93 °C

**Q:** # iterate: `CCCCNc1nc2ccccc2c2c1ncn2C`
**A:** 98 to 100 °C

**Q:** # iterate: CC1CNc2c(cccc2[N+](=O)[O-])C(=O)N1Cc1ccccc1 (centres undefined)
**A:** 125 °C

**Q:** # iterate: `O=[N+]([O-])c1cccnc1NCc1cccs1`
**A:** 100 °C

**Q:** # iterate: O=C1Nc2ccccc2CCC1Oc1ccc([N+](=O)[O-])c(OCc2ccccc2)c1 (centres undefined)
**A:** 188 to 189 °C

**Q:** # iterate: Cc1ncc([N+](=O)[O-])n1CCN1C(=O)C2c3cccc4cccc(c34)C2C1=O (centres undefined)
**A:** 183 to 185 °C

**Q:** # iterate: `CNC(=O)c1cc(-c2ccc(OC)cc2)nn(CCO)c1=O`
**A:** 160 to 161 °C

**Q:** # iterate: `CS(=O)(=O)c1ccc(-c2oc(CO)cc(=O)c2Oc2ccc(F)cc2F)cc1`
**A:** 205 °C

**Q:** # iterate: `Oc1ccccc1-c1ccccc1P(c1cc(C(F)(F)F)cc(C(F)(F)F)c1)c1cc(C(F)(F)F)cc(C(F)(F)F)c1`
**A:** 120 to 121 °C

**Q:** # iterate: `CNc1cc(Oc2ccc(NC(=O)Nc3ccc(-c4cccc(C)n4)c(C(F)(F)F)c3)cc2)ncn1`
**A:** 106 to 109 °C

**Q:** # iterate: `CCOC(=O)CNC(=S)NC(=Nc1ccccc1)c1ccccc1`
**A:** 151 to 152 °C

**Q:** # iterate: `COC(=O)CCc1c(C(C)C)cc(C(C)C)cc1C(C)C`
**A:** 45 to 47 °C

**Q:** # iterate: `Cc1nc2c(CCc3ccccc3)cccn2c1CC#N`
**A:** 120 to 123 °C

**Q:** # iterate: COC(=O)C1CCn2c1cc(Cl)c2C(=O)c1ccccc1 (centres undefined)
**A:** 106 °C

**Q:** # iterate: `CCOC(=O)C(=O)N(CC)C(=O)OCCOc1ccc(Oc2ccccc2)cc1`
**A:** 56 to 58 °C
